Target: mouse Tas2r105 (Mus musculus, UniProt Q9JKT4)
Construct: expressed in transfected cells; host or cells: HEK293T-Gα16gust44
Sequence (Q9JKT4 whole entry): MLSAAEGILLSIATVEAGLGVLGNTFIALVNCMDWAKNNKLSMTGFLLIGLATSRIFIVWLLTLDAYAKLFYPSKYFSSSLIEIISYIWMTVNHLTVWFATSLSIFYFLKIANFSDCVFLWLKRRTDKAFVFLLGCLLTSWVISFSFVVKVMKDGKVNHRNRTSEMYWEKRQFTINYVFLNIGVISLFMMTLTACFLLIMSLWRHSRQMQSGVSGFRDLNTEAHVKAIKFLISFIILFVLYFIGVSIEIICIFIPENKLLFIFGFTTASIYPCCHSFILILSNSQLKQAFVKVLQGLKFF
Experiment: Calcium imaging assay (FLIPR), HEK293T-Gα16gust44 cells transfected with mouse Tas2r105
Assay type: cell-based
Conditions: Time 90.781 s
Quantity: RLU (RLU)
Dear colleague, please return just the value in RLU, with no unit written.

Past entries and their recorded results:
Query smiles	Units	Endpoint value
C[C@H](CCC(=O)O)[C@H]1CC[C@H]2[C@@H]3CC[C@@H]4C[C@H](O)CC[C@]4(C)[C@H]3CC[C@]12C	RLU	215.59
C[C@H](CCC(=O)NCC(=O)O)[C@H]1CC[C@H]2[C@@H]3[C@H](O)C[C@@H]4C[C@H](O)CC[C@]4(C)[C@H]3C[C@H](O)[C@]12C	RLU	546.96
C[C@H](CCC(=O)O)[C@H]1CC[C@H]2[C@@H]3[C@H](O)C[C@@H]4C[C@H](O)CC[C@]4(C)[C@H]3C[C@H](O)[C@]12C	RLU	575.612

Switching to the query record.
Give its RLU value. Item: C[C@H](CCC(=O)O)[C@H]1CC[C@H]2[C@@H]3CC[C@@H]4C[C@H](O)CC[C@]4(C)[C@H]3C[C@H](O)[C@]12C 72.636
